test: NCI Yeast Anticancer Drug Screen. Data for the bub3 strain (AID 167); conditions: S. cerevisiae bub3 mutant strain, at 50.0 µM, active compounds read high
Compounds without any hit were thinned out: in the full panel of roughly 79,000, 15% have a hit.
The entries below come with measured growth inhibition values attached.
Numeric answer only, unit % assumed.

Worked cases, answers included:
>>> numericresult("C/C(=N\\NC(=S)N1CCN(c2ccccc2)CC1)c1nccs1")
88.3
>>> numericresult("COc1ccc(S)cc1")
76.5
>>> numericresult("O=C1c2ccccc2C(=O)c2sc(Nc3ccc([N+](=O)[O-])cc3)nc21")
80.7
>>> numericresult("C/C(=N\\NC(=S)N1CCN(c2cnccn2)CC1)c1ccccn1")
85.3
>>> numericresult("COc1cc2c(c(OC)c1OC)-c1ccc(=O)c(OC)cc1[C@@H](N)CC2")
-5.1

Please give the measured growth inhibition for this compound: CNCC(O)c1cccc(O)c1 (configuration not stated) 21.2

Please give the measured growth inhibition for this compound: NS(=O)(=O)c1ccc(NC(=O)Cc2nc3ccccc3s2)cc1 92
